Listed below: TG (triglyceride accumulation) values for each entry.
test system: adipocytes; test: Triglyceride accumulation assay in adipocytes; type: cell-based, human; settings: differentiating adipocytes transfected with oligomeric compound; Table 75
In the oligonucleotide strings, read from the 5' end, every base follows the letter of its sugar. An asterisk marks phosphorothioate; unmarked linkages are phosphodiester. Other units and linkages are bracketed, terminal groups are in braces. A string of capitals states the bases alone. e = 2'-O-(2-methoxyethyl) (MOE); [5mC] = 5-methylcytosine

| substance | measurement_target | TG (triglyceride accumulation) |
| --- | --- | --- |
| 327886 (antisense e[5mC]*eG*e[5mC]*eG*eT*eA*e[5mC]*e[5mC]*eA*eA*eA*eA*eG*eT*eA*eA*eT*eA*eA*eT*eG) [compound 327886] | adipocytes | 12 percentage of untreated control (UTC) |
| 328117 (antisense eT*e[5mC]*e[5mC]*eA*e[5mC]*eA*eA*eA*eG*e[5mC]*eT*eG*eA*eA*e[5mC]*eA*eT*eG*eT*e[5mC]*eT) [compound 328117] | adipocytes | 16 percentage of untreated control (UTC) |
| 346914 (AUCUGCACUGUCAGCACUUUA; all 2'-MOE, all phosphorothioate, methylation of C and T or U not given here) [compound 346914] | adipocytes | 41 percentage of untreated control (UTC) |
| 346917 (CAGCUAUGCCAGCAUCUUGCCU; all 2'-MOE, all phosphorothioate, methylation of C and T or U not given here) [compound 346917] | adipocytes | 39 percentage of untreated control (UTC) |
| 340350 (antisense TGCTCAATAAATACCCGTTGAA; all 2'-MOE, all phosphorothioate, methylation of C not given here) [compound 340350] | adipocytes | 38 percentage of untreated control (UTC) |
| 328110 (antisense eG*eA*eT*eA*eA*eA*eG*e[5mC]*e[5mC]*eA*eA*eT*eA*eA*eA*e[5mC]*eT*eG*eT*e[5mC]*eA) [compound 328110] | adipocytes | 96 percentage of untreated control (UTC) |
| 328091 (antisense eG*e[5mC]*eT*eG*e[5mC]*e[5mC]*eG*eT*eA*eT*eA*eT*eG*eT*eG*eA*eT*eG*eT*e[5mC]*eA) [compound 328091] | adipocytes | 48 percentage of untreated control (UTC) |
| 327923 (antisense eG*eA*eA*eA*eG*eA*eG*eA*e[5mC]*e[5mC]*eG*eG*eT*eT*e[5mC]*eA*e[5mC]*eT*eG*eT*eG*eA) [compound 327923] | adipocytes | 88 percentage of untreated control (UTC) |

* * *

test system: BJ, B16-F10, T47D, T47Dp53 and HeLa cells; test: Cell cycle assay (propidium iodide flow cytometry), cell line panel; format: cell-based; conditions: 150 nM oligomeric compound, 4.5 μg/ml LIPOFECTIN, after 72 hours, propidium iodide flow cytometry
In the oligonucleotide strings, read from the 5' end, every base follows the letter of its sugar. An asterisk marks phosphorothioate; unmarked linkages are phosphodiester. Other units and linkages are bracketed, terminal groups are in braces. A string of capitals states the bases alone. e = 2'-O-(2-methoxyethyl) (MOE); [5mC] = 5-methylcytosine; d = 2'-deoxy (DNA)
Listed below: aneuploid (percentage of cells) values for each entry.

| substance | measurement_target | reading_unit | aneuploid (percentage of cells) |
| --- | --- | --- | --- |
| 327905 (antisense e[5mC]*eA*eG*eA*e[5mC]*eT*e[5mC]*e[5mC]*eG*eG*eT*eG*eG*eA*eA*eT*eG*eA*eA*eG*eG*eA) [compound 327905] | BJ, B16-F10, T47D, T47Dp53 and HeLa cells | % | 14.7 |
| 328382 (e[5mC]*eA*eG*eA*e[5mC]*dT*d[5mC]*d[5mC]*d[5mC]*dA*dA*d[5mC]*dT*dG*dA*e[5mC]*e[5mC]*eA*eG*eA) [compound 328382] | BJ, B16-F10, T47D, T47Dp53 and HeLa cells | % | 14.8 |
| 328394 (eG*eT*eT*eT*eT*dT*dT*d[5mC]*dA*dA*dA*dT*d[5mC]*d[5mC]*d[5mC]*eA*eA*eA*e[5mC]*eT) [compound 328394] | BJ, B16-F10, T47D, T47Dp53 and HeLa cells | % | 18.3 |
| 327888 (antisense eA*eA*eT*eG*e[5mC]*e[5mC]*e[5mC]*e[5mC]*eT*eA*eA*eA*eA*eA*eT*e[5mC]*e[5mC]*eT*eT*eA*eT) [compound 327888] | BJ, B16-F10, T47D, T47Dp53 and HeLa cells | % | 12.9 |
| 328424 (antisense eA*eG*eG*eA*eA*dG*d[5mC]*dA*d[5mC]*dA*d[5mC]*dA*dT*dT*dA*eT*e[5mC]*eA*e[5mC]*eA) [compound 328424] | BJ, B16-F10, T47D, T47Dp53 and HeLa cells | % | 16.9 |
